# SYSTEM UNDER TEST: CSF-1R (Homo sapiens, UniProt P07333)
# Sequence (P07333 20-972): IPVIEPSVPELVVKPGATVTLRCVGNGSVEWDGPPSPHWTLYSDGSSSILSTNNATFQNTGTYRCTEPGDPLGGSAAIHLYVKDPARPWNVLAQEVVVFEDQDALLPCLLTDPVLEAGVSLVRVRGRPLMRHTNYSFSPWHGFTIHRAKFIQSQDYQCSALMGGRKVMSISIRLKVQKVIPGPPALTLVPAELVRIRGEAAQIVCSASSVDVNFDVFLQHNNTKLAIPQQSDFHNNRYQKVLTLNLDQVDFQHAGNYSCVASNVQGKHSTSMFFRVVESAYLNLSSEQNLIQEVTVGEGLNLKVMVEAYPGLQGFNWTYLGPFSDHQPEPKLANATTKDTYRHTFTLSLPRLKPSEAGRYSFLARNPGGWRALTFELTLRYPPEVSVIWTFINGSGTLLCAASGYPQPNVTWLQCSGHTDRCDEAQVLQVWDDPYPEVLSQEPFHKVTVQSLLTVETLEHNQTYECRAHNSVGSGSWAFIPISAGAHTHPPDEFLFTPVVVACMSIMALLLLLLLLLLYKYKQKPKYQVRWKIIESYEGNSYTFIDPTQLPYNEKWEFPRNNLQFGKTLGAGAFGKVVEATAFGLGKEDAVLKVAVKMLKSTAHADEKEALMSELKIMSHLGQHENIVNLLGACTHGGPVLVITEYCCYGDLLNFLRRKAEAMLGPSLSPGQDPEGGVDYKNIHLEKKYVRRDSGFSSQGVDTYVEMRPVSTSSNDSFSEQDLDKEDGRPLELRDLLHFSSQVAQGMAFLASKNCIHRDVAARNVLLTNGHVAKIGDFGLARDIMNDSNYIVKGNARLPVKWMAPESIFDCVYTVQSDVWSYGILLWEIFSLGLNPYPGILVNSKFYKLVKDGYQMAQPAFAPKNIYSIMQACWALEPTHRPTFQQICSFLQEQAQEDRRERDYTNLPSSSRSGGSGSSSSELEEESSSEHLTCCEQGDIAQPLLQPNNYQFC
READOUT: IC50 (nM)
Entry rule: numbers only, all in nM.

Solved entries (count: 3):
- MOLECULE: "Cc1nc(NC(=O)N2CCC(C)(C)C2=O)ccc1Oc1ccnc(-c2cnn(C3CCN(C)C3)c2)c1 (centres unmarked) [Example 17]"
  SYSTEM UNDER TEST: "CSF-1R (Homo sapiens, UniProt P07333)"
  READOUT: "IC50"
  MEASURED VALUE: 101
- MOLECULE: "COCCC1(C)CCN(C(=O)Nc2ccc(Oc3ccnc(-c4cnn(C)c4)c3)c(C)n2)C1=O (centres unmarked) [Example 37]"
  SYSTEM UNDER TEST: "CSF-1R (Homo sapiens, UniProt P07333)"
  READOUT: "IC50"
  MEASURED VALUE: 207
- MOLECULE: "Cc1nc(NC(=O)N2CCC(C)(C)C2=O)ccc1Oc1ccnc(NC(=O)N2CCN(C)CC2)c1 [Example 24]"
  SYSTEM UNDER TEST: "CSF-1R (Homo sapiens, UniProt P07333)"
  READOUT: "IC50"
  MEASURED VALUE: 56.6

[Q] Quote IC50 with test system CSF-1R (Homo sapiens, UniProt P07333) for Cc1nc(NC(=O)N2CCC(C)(C)C2=O)ccc1Oc1ccnc(-c2cnn(CC(C)(C)O)c2)c1 [Example 16]
[A] 230

[Q] Quote IC50 with test system CSF-1R (Homo sapiens, UniProt P07333) for [2H]C([2H])([2H])n1cc(-c2cc(Oc3ccc(NC(=O)N4CCC(C)(C)C4=O)nc3C)ccn2)cn1 [Example 11]
[A] 21.4

[Q] Quote IC50 with test system CSF-1R (Homo sapiens, UniProt P07333) for Cc1nc(NC(=O)N2CCC(C)(C)C2=O)ccc1Oc1ccnc(-c2cnn(C3CC3)c2)c1 [Example 15]
[A] 20.7
